Source of measurements: ChEMBL document CHEMBL1138313

Experiment: Biodistribution in Wistar rat urine at 15 umol/kg, iv after 5 hrs
Format: ADME, organism-based
Settings: read-out: Drug uptake
metric.name: dose excreted at 5 h (%)
Your answer is read as %, so omit the unit and give the number.

The recorded dose excreted at 5 h for CCC[C@H](CC1(C(=O)Nc2nn[14c](CC)s2)CCCC1)C(=O)O is 4.9

====

Assay: Biodistribution in Wistar rat bile assessed as drug elimination at 15 umol/kg, iv after 1 hr
Format: ADME, organism-based
Settings: read-out: Drug uptake
metric.name: dose excreted at 1 h (%)
Your answer is read as %, so omit the unit and give the number.

The recorded dose excreted at 1 h for CCC[C@H](CC1(C(=O)Nc2nn[14c](CC)s2)CCCC1)C(=O)O is 28.7

====

Assay: Biodistribution in Wistar rat bile assessed as drug elimination at 15 umol/kg, iv after 5 hrs
Format: ADME, organism-based
Conditions: read-out: Drug uptake
metric.name: dose excreted at 5 h (%)
Your answer is read as %, so omit the unit and give the number.

The recorded dose excreted at 5 h for CCC[C@H](CC1(C(=O)Nc2nn[14c](CC)s2)CCCC1)C(=O)O is 75.1

====

Experiment: Biodistribution in Wistar rat bile at 50 umol/kg, iv after 1 hr
Format: ADME, organism-based
Details: read-out: Drug uptake
metric.name: dose excreted at 1 h (%)
Your answer is read as %, so omit the unit and give the number.

The recorded dose excreted at 1 h for CCC[C@@H]1CC2(CCCC2)C(=O)N(c2nnc(CC)s2)C1=O is 4.5

====

Experiment: Biodistribution in Wistar rat bile at 50 umol/kg, iv after 5 hrs
Type: ADME, organism-based
Conditions: read-out: Drug uptake
metric.name: dose excreted at 5 h (%)
Your answer is read as %, so omit the unit and give the number.

The recorded dose excreted at 5 h for CCC[C@@H]1CC2(CCCC2)C(=O)N(c2nnc(CC)s2)C1=O is 11
